B1: Pistol ribozyme (parent)
chain: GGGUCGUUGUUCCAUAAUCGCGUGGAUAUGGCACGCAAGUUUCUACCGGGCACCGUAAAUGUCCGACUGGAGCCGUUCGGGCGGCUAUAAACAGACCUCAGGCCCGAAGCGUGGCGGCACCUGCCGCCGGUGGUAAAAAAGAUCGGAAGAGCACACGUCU

Variants of: B1
test: aptazyme ON/OFF ratio, guanine; higher = stronger switching; co-transcriptional cleavage with and without guanine
parameter measured: aptazyme ON/OFF ratio

mutation string: U7A U8A G9U U10A U11A C13G
observed: 1.07

mutation string: U7C U8G U10A U11G C12G C13U
observed: 1.36

mutation string: U7A U8G G9U U10C C12G C13G
observed: 1.16

mutation string: U7C U8C G9C U10G U11C C12G C13A
observed: 1.14

mutation string: U8C U11A C12A
observed: 1.34

mutation string: U8C U10C U11G
observed: 1.42

mutation string: U7G G9C U11G C12G C13U
observed: 1.29

mutation string: U7C U8G U10C C12A
observed: 2.01

mutation string: U7A U8A G9A U10A U11G C12A C13A
observed: 1.16

mutation string: U8G G9U C12G
observed: 1.64

mutation string: U7C U8C G9C U10G U11G C12A C13G
observed: 1.07

mutation string: U7A U8C G9A U10C U11G C12G
observed: 1.27

mutation string: U7C U8C G9U U10C C12A C13U
observed: 1.07

mutation string: U7A U8G G9C C13U
observed: 1.42

mutation string: U7A U8G G9C U10G C12G C13G
observed: 1.17

mutation string: U7C U8A G9C U10A U11A C13U
observed: 1.19

mutation string: U8G U10G U11A C12A C13U
observed: 1.3

mutation string: U10G C12U C13A
observed: 1.33

mutation string: U8A G9C U10G U11C C12U C13U
observed: 1.16

mutation string: U7G U8G G9C U10A U11G C12G C13G
observed: 1.07

mutation string: U7G U8G G9A C12G C13U
observed: 1.3

mutation string: U7A U10A C12G C13G
observed: 1.25

mutation string: U7C U8G G9C U10C U11G C12G
observed: 1.09

mutation string: U7A U10A U11C C12A C13A
observed: 1.1

mutation string: U7G U8A G9A U10G U11G C12A C13G
observed: 1.14

mutation string: U8A U11A C12A
observed: 1.07

mutation string: U7A U8A U10G U11G C12A
observed: 1.3

mutation string: U7C U8G U11A C12U C13A
observed: 1.09

mutation string: G9C U10A U11C C13U
observed: 1.06

mutation string: U7C U8G G9A U11C C12G
observed: 1.11

mutation string: U7A U8C G9A U11A C12U C13U
observed: 1.18

mutation string: U7A U8A U10A U11G
observed: 1.17

mutation string: U7A U8G U10G U11A C12A
observed: 1.09

mutation string: U7G U8A C12U C13G
observed: 1.38

mutation string: U8G G9C U10G C12U C13A
observed: 1.08

mutation string: U7A U8A G9U U11A C13A
observed: 1.19

mutation string: U7G G9C U10C U11G C12U C13A
observed: 1.33

mutation string: U7C U8A G9U U11A C12G C13A
observed: 1.17

mutation string: U7G U8A U10G U11C C12U C13G
observed: 1.52

mutation string: U7A U8G G9U U10A U11G C12G C13A
observed: 1.05

mutation string: U7G U8C G9U U10A U11C C12U C13A
observed: 1.48

mutation string: U7A U8G G9U U10C C12G C13U
observed: 1.68

mutation string: U7C U8C G9A U10A U11C C12A C13U
observed: 1.31

mutation string: U7C U8A G9C U10C U11C C13U
observed: 1.03

mutation string: U7C U8A G9A U11G C12G C13A
observed: 1.12

mutation string: U7C U8G G9C U11A C12A
observed: 1.22

mutation string: U7A G9U U10A C12U C13U
observed: 1.17

mutation string: U8C G9C U10A U11C C12G C13U
observed: 1.27

mutation string: U8G G9C U11A C12A C13A
observed: 1.07

mutation string: U7A U8A G9A U10G U11C C12A C13U
observed: 1.19

mutation string: G9A U10G U11C C12G
observed: 1.33

mutation string: U7G G9A U10A U11C C12A C13A
observed: 1.13

mutation string: G9C U10A U11G C12U
observed: 1.37

mutation string: U7A G9A U11A C12G C13G
observed: 1.16

mutation string: U7A G9A U11A
observed: 1.46

mutation string: U7C U8G G9U U10C U11G C12G
observed: 1.21

mutation string: U8G G9U U10A U11A C12G C13G
observed: 1.18

mutation string: U7C U8A G9C U10C U11G C12G C13A
observed: 1.11

mutation string: U7A U8G G9U U10A C12G C13U
observed: 1.36

mutation string: U7G U8C G9A C12U
observed: 1.07

mutation string: U7A G9U U10G U11C C12A C13U
observed: 1.24

mutation string: U7C U8C G9A U10G C12G C13G
observed: 1.16

mutation string: U7G U8C G9C U10A U11C C13G
observed: 1.26

mutation string: U7A G9U C12A C13U
observed: 1.28

mutation string: U7A U8A G9U C12U C13A
observed: 1.34

mutation string: U8A G9U U10A U11C C12U C13G
observed: 1.22

mutation string: U7A U8C G9A U11C C12A C13G
observed: 1.16

mutation string: U7C G9A U10A U11G C13U
observed: 1.25

mutation string: U7A G9U C12A C13A
observed: 1.27

mutation string: U8C U10G U11C C12A C13U
observed: 1.32

mutation string: U7C U8A G9U U10A C12A C13A
observed: 1.29

mutation string: U8C G9C U10C U11A C12A C13U
observed: 1.02

mutation string: U7A G9C U10G U11C C13A
observed: 1.06

mutation string: U7A U10C U11G C12A
observed: 1.08

mutation string: U7A U8A C12A C13U
observed: 1.5

mutation string: U7C U8C G9C U10A C12G C13A
observed: 1.11

mutation string: U7G U8C G9A U11C C12A
observed: 2

mutation string: G9C U10C C12G C13G
observed: 1.09

mutation string: U7A U8C G9C U10G U11C C12U
observed: 1.09

mutation string: U7A U8A G9C U11A C12A C13G
observed: 1.18

mutation string: U7C U8A G9U U11A C13U
observed: 1.17

mutation string: U7A G9A U10G U11C C12A C13U
observed: 1.11

mutation string: U8C G9C U11G C12A C13G
observed: 1.14

mutation string: U7G U8C G9U U10C U11C C12A C13A
observed: 1.52

mutation string: U8C U10A C12G C13G
observed: 1.14

mutation string: U7G U8A U10A C12A C13G
observed: 1.3

mutation string: U8A G9A U10G C12G
observed: 1.16

mutation string: G9U U10G C12U C13A
observed: 1.35

mutation string: U7C U8C U10A U11G C12G C13U
observed: 1.14

mutation string: U8A G9U U10A U11C C13A
observed: 1.04

mutation string: U8C G9U U11G C12U
observed: 1.59
